Reference for the values: ChEMBL document CHEMBL1127005

Species on record: Rattus norvegicus
Protocol text: Inhibition against gluconeogenesis was expressed as effect of compound on rat hepatocyte glucose production from 10 mM lactate/1 mM pyruvate/0.5 mM oleate
Assay type: functional
Test settings: Rattus norvegicus, Hepatocyte
// assign 1 if IC50 falls strictly below 30 µM, else 0 (ties count as 0)

Some solved entries appear below for comparison.
C=C1[C@@H](CC(=O)O)[C@H]1CCCC
1
C=C1[C@@H](CC(N)=O)[C@H]1CCCC
1
C=C1C[C@@H]1CC(=O)O
0
C=C1[C@@H](CCCCCCCCCCCC)[C@@H]1CC(=O)O
0
C=C1[C@@H](CC(=O)O)[C@H]1CCCCCCCC
1

In: # strict comparison: is reported IC50 < 30 µM? input = C=C1[C@H](CCCC)[C@H]1CC(N)=O
Out: 0

In: Same for C=C1[C@@H](CC(N)=O)[C@H]1CCCCCCCCCCCC
Out: 0

In: Try the compound C=C1[C@@H](CC(N)=O)[C@H]1CCCCCCCC
Out: 1

In: Then C=C1[C@@H](CC(=O)O)[C@H]1CCCCCCCCCCCC ?
Out: 1
